# System: biotinyl-Trp-oxazolone
# method: self-aminoacylation, catalytic enhancement (BWO) (fold over background); higher = more active; k-Seq, kA / k0A0; sequences stand for … in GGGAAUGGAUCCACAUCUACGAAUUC…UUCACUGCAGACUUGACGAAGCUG
Fewer inactive variants are shown than the library holds.
Label met when self-aminoacylation is at or above 10; otherwise label not met.

See these solved cases before continuing.
seq-string: AUUACCCUGAUCAUCGAGUAA [Fam2.1 aminoacylation ribozyme variant]
label-value: not met
--
seq-string: GUUCACCUAGGUCAUUGGGUG [Fam2.2 aminoacylation ribozyme variant]
label-value: not met
--
seq-string: AUAACCCUGGUCAUCGAGUGU [Fam2.1 aminoacylation ribozyme variant]
label-value: met

Consider the additional sequence presented here.
In plain terms: is recorded self-aminoacylation at least 10 for AUUCACCUAUGUCUUCGGGUG [Fam2.2 aminoacylation ribozyme variant] ?
not met
